- METHOD NOTES: NCI Yeast Anticancer Drug Screen. Data for the rad50 strain (AID 155);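 also: 0% = growth of vehicle-only cultures of the same strain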
- TEST CONTEXT: S. cerevisiae rad50 strain growth inhibition; at 50.0 µM; active compounds read high
This is part of a sample that, as a whole, favours compounds with a hit. Of some 79,000 tested, about 15% had one in any assay.
PARAMETER: growth inhibition (%)
One number for each entry, in %.

Recorded results for 5 compounds are shown here.
**Q:** Record request: growth inhibition value, item CCCCCCCC(N)C(=O)O (configuration not stated)
**A:** 0

**Q:** Query CN1CCN(C2CCCc3ccccc3C2O)CC1 (configuration not stated) next
**A:** -0.75

**Q:** Another compound to look at: CSCCC(NCc1c(O)ccc2c(C)cc(=O)oc12)C(=O)O (configuration not stated)
**A:** 16.5

**Q:** // same read-out, input: CC(=O)Nc1ncc(Br)s1
**A:** 6.75

**Q:** // same read-out, input: CCc1ccc(O)c(CN2CCN(Cc3cc(CC)ccc3O)CC2)c1
**A:** -2.85

For each of the items listed, what is its growth inhibition?
1. CCOc1ccccc1NC(=O)C1=C(C)NC(C)=C(C(=O)Nc2ccccc2OCC)C1c1ccc2c(c1)OCO2
2. O=C1CSC(c2ccc(Cl)c(Cl)c2)N1c1nncs1 (configuration not stated)
3. CCCc1ccccc1NC(=O)NCCCl
4. CCOC(=O)C(C(=O)OCC)c1cnc2ccccc2c1Cl
5. CSc1nc(N)c(N=Nc2ccc(S(=O)(=O)Nc3cc(C)nc(C)n3)cc2)c(=O)[nH]1

**A:**
9.5
-18.7
-1.75
-0.7
17.4

Provide each entry's growth inhibition from the list below.
1. COC(=O)c1[nH]c(=O)c(C#N)c(C(=O)OC)c1-c1ccc(F)cc1
2. CCOC(=O)C(Cc1cccc2ccccc12)(NC(C)=O)C(=O)OCC

**A:**
-4.55
-7.5

----------
What growth inhibition was measured for each of the following?
- METHOD NOTES: NCI Yeast Anticancer Drug Screen. Data for the sgs1 mgt1 strain (AID 161);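 also: 0% = growth of cultures given vehicle only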
- TEST CONTEXT: S. cerevisiae sgs1 mgt1 strain, at 50.0 µM, active compounds read high
The panel holds about 79,000 compounds, 15% with a hit somewhere; the sample as a whole holds those more often.
Answers are plain numbers, in %.

Example entries begin here.
**Q:** Name the recorded growth inhibition for N#CC(CCc1ccc([N+](=O)[O-])cc1)(CCc1ccc([N+](=O)[O-])cc1)C(N)=O .
**A:** 35.9

**Q:** Another compound to look at: O=C(O)c1cc(Br)sc1Br
**A:** -8.8

**Q:** Next compound up: Nc1ncnc(Nc2ccc(S(=O)(=O)O)cc2)n1
**A:** -31.1

Go through the items and report each one's growth inhibition.
1. CCOC(=O)CSc1[nH]c(NC(=S)Nc2ccccc2)c(C(N)=O)c1C(N)=O
2. Nc1cccc([N+](=O)[O-])c1O
3. CCOC(=O)c1ccc(N=C2C(=S)N(c3ccc(C(=O)OCC)cc3)C(=N)N2/N=C/c2ccccc2)cc1
4. COc1cccc(-c2nc(SCC(N)=O)[nH]c(=O)c2C#N)c1
5. S=C(Cc1ccc2ccccc2c1)N1CCOCC1
6. Cc1cc(OCCCCCCC[N+](C)(C)Cc2ccc([N+](=O)[O-])o2)c(C(C)C)cc1Cl
7. Nc1cc2c3c(cccc3c1Br)C(=O)OC2=O
8. c1ccc(C[n+]2ccc3c(c2)CCCC3)cc1

**A:**
1. 23.7
2. 12.7
3. 11.5
4. 13.5
5. -2.1
6. 99.8
7. 99.7
8. 27.8

----------
- METHOD NOTES: NCI Yeast Anticancer Drug Screen. Data for the rad50 strain (AID 155);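 also: 0% = growth of vehicle-only cultures of the same strain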
- TEST CONTEXT: S. cerevisiae rad50 strain growth inhibition; at 50.0 µM; active compounds read high
Compounds without any hit were thinned out: in the full panel of roughly 79,000, 15% have a hit.
PARAMETER: growth inhibition (%)
Give bare numbers, in %.

List the reported growth inhibition of each compound below.
1. CC(=O)CCC(=O)CCC(C)=O
2. O=C1NC(Cc2cccc(I)c2)C(=O)N1c1ccccc1 (configuration not stated)

**A:**
[-0.05, 37.3]

Provide the reported growth inhibition of each entry below, same order.
1. OCCN(CCO)CCCNc1ccnc2cc(Cl)ccc12
2. Cc1ccc(C(=O)CCC(=O)OCC(=O)c2ccc(-c3ccccc3)cc2)cc1
3. COC1=C(C#N)C(c2ccccc2)CC(N)=N1 (configuration not stated)
4. Cc1ccc(/C=C/C(=N/Nc2ccccc2)C(C)CN(C)C)cc1 (configuration not stated)
5. Cn1c(N)cc(=O)nc1N
6. CC(=O)C1C[C@]2(O)[C@@]3(C)CO[C@]2(C)CC1(O)C3 (some centres not stated)
7. CC(=O)OCC1OC(n2c3c(cc(C#N)c2=S)CCCCC3)C(OC(C)=O)C(OC(C)=O)C1OC(C)=O (configuration not stated)

**A:**
[-22.6, -7.95, 1.55, -3.2, -7.55, 3.45, 27.1]

Please look at the items below and tell me growth inhibition for each one, in order.
1. Brc1ccc2nc(-c3ccccc3)c3ccccc3c2c1
2. C=CS(=O)(=O)c1ccc(Nc2cc(S(=O)(=O)O)c(N)c3c2C(=O)c2ccccc2C3=O)cc1
3. CN(C)C1Cc2ccccc2C1OC(=O)c1ccccc1 (configuration not stated)

**A:**
1. -13.7
2. -20.2
3. 27

----------
- METHOD NOTES: NCI Yeast Anticancer Drug Screen. Data for the mec2-1 strain (AID 157)
- TEST CONTEXT: S. cerevisiae mec2-1 strain, at 50.0 µM, active compounds read high
This is part of a sample that, as a whole, favours compounds with a hit. Of some 79,000 tested, about 15% had one in any assay.
PARAMETER: growth inhibition (%)
Numbers only, in %.

**Q:** May I ask what growth inhibition has been recorded for O=C(O)C1=C(C(=O)O)C2CCC1C2 ?
**A:** -33.5

Each compound below has a recorded value; state its growth inhibition.
1. COC1OC(COS(C)(=O)=O)C(OS(C)(=O)=O)C(OS(C)(=O)=O)C1OS(C)(=O)=O (stereo unspecified)
2. CC(=N/O)/C(C)=C/c1ccccc1
3. O=C(CCl)Nc1cc(C(F)(F)F)ccc1Cl
4. O=C(Nc1ccccc1C/C(=N/O)c1ccc2c(c1)OCO2)c1ccccc1
5. CCOC(=O)C(Cl)(NC(=O)c1ccc(F)cc1)C(F)(F)F (stereo unspecified)

**A:**
-7.05
7.3
1.75
0.4
6.7

Give growth inhibition for each listed item.
1. COc1ccc2c(c1)c1c3c(ccc4ncn2c43)N(CCN(C)C)CCN=1
2. Cc1cc(C)c2c(=O)cc(-c3cccc(Cl)c3)[nH]c2n1
3. CC(=O)Oc1cc(C=O)ccc1O
4. CN(C)c1ccc2c(SCC(=O)OCC(=O)C3(O)CCC4C5CCC6=CC(=O)C=CC6(C)C5C(O)CC43C)c3ccc(N(C)C)cc3nc2c1 (stereo unspecified)

**A:**
1: -26.1; 2: -12.4; 3: 6.7; 4: 45.4

**Q:** Any idea what its growth inhibition is? The compound is Cc1ccc(N)c(C(O)(C(F)(F)F)C(F)(F)F)c1
**A:** 1.5

----------
- METHOD NOTES: NCI Yeast Anticancer Drug Screen. Data for the cln2 rad14 strain (AID 165);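 also: 0% = growth equal to vehicle treated cultures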
- TEST CONTEXT: S. cerevisiae cln2 rad14 strain, at 50.0 µM, active compounds read high
About 79,000 compounds went through this panel and 15% of them were active in at least one assay; those are over-represented in the sample as a whole. Where a SMILES comes first, the peptide text is derived from it. [ ]: non-standard residue; d: D form. The star is where a group is joined. Cbz = O=C(OCc1ccccc1)*; Dha = C=C(N)C(=O)O
PARAMETER: growth inhibition (%)
One number for each entry, in %.

**Q:** Find the recorded growth inhibition belonging to CC(=O)Nc1ccc(/C=C2\SC(=S)N(/C=C3/C(=O)N(c4ccccc4)N=C3C)C2=O)cc1 and report it.
**A:** 7

Quick batch: growth inhibition for everything below.
1. Cc1ccc(NC(=O)N2CC2(C)C)cc1NC(=O)N1CC1(C)C
2. C=C(NC(=O)C(C)NC(=O)OCc1ccccc1)C(=O)N1CCCC1C(=O)NC(C)C(=O)NC (centres undefined) (Cbz-A[Dha]PA-NHMe; configuration not given here)
3. [O-][n+]1c2ccccc2nn1-c1ccccc1
4. CN1CCN(C(CO)Cc2ccccc2)CC1 (centres undefined)
5. O=C(O)C1CC2(CCC1c1ccccc1)SCCS2 (centres undefined)
6. CC(=O)OCC1(C)NC(=O)c2ccccc2O1 (centres undefined)

**A:**
-1.6
3.4
-21.4
-15.8
13.6
8.15

----------
- METHOD NOTES: NCI Yeast Anticancer Drug Screen. Data for the rad50 strain (AID 155);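 also: 0% = growth of vehicle-only cultures of the same strain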
- TEST CONTEXT: S. cerevisiae rad50 strain growth inhibition; at 50.0 µM; active compounds read high
Compounds without any hit were thinned out: in the full panel of roughly 79,000, 15% have a hit.
PARAMETER: growth inhibition (%)
Give bare numbers, in %.

Field: example entries. Status: answers known.
**Q:** Report growth inhibition for CC(=O)Nc1cc(N)cc(C(=O)O)c1 please.
**A:** 37

**Q:** Same read-out for CC(Oc1ccccc1-c1ccccc1)C(=O)O (stereo not given) ?
**A:** 6.95

**Q:** Would you kindly repeat that for CCNC(=O)COc1ccc(Cl)cc1C(C)C ?
**A:** -2.65

**Q:** Now give it for N#CC(=Nc1cc(Cl)cc(Cl)c1)C1=C(O)c2ccccc2C1=O too.
**A:** 5.75

**Q:** Query CN(C)Cc1ccc(O)c(CN(C)C)n1 next
**A:** -21.1

Report growth inhibition for every entry below.
1. COc1cccc(CC(=O)O)c1OC
2. O=C1N(Cc2ccccc2)CC2CCc3c(ccc4ccccc34)N12 (stereo not given)
3. Cc1ccc(O)c(C(=O)C[n+]2ccccc2)c1
4. c1cnc(NC(Nc2cnccn2)C2CCCCC2)cn1
5. CS(=O)c1ccc(/C=C2/C=Cc3ccccc32)cc1 (stereo not given)
6. CC(=O)OC[C@]1(C)CCCC2(C)C1CCC1C=C(C)[C@H]3CCC12C3 (stereo not given in full)
7. O=S(=O)(Oc1cccc2ccccc12)c1ccc(Br)cc1

**A:**
1: 22.9; 2: 11; 3: -12.8; 4: -2.25; 5: 32.8; 6: 2.05; 7: 3.15

Each compound below has a reported value. Please supply its growth inhibition.
1. COCCNc1cncc(C(N)=O)c1
2. Nc1nc(N)c2nc(CNc3ccc(C(=O)NC(CCCNC(=O)c4ccccc4C(=O)O)C(=O)O)cc3)cnc2n1 (stereo not given)
3. COC(=O)Cc1cc(=O)c2cc(C)ccc2[nH]1
4. COc1ccc(/C=N/Nc2nc3ccccc3c(=O)n2-c2ccccc2)c(OCc2ccccc2)c1
5. C=C1CCc2occ(C)c2C2C1C1=C(CC(C)C1=O)C1OC12C (stereo not given)
6. CC(=O)CC(=O)Nc1ccccc1C
7. Cc1c[n+]([O-])n(-c2ccccc2)n1
8. Cc1ccc(C)c(NS(=O)(=O)c2ccc(Cl)c([N+](=O)[O-])c2)c1

**A:**
1. 15
2. -14.1
3. 0.9
4. 4.7
5. 14.9
6. -5.2
7. 4.65
8. 97.1

Please state, for each entry, its recorded growth inhibition.
1. COC(=O)/C(C#N)=C\N1CCNC1=S
2. COc1ccc(C(C)c2cc(OC)c(OC)cc2OC)cc1 (stereo not given)
3. Cc1cc(OCCCCCCC[N+](C)(C)Cc2ccc([N+](=O)[O-])o2)c(C(C)C)cc1Cl
4. CCC12C=CCN(CCc3c([nH]c4ccccc34)/C=C\1)C2 (stereo not given)
5. CS(=O)(=O)Nc1ccc2ccccc2c1
6. CCN(CC)CC1CCCCCCCCCCC1=O (stereo not given)

**A:**
-54.8
17.6
99.6
-8.95
-33.8
-30.3
